These entries and their values trace back to patent US10040804B2.

- System: Molm-13 cells
- method.notes: Molm-13 cell viability (CellTiter-Glo)
- Format: cell-based
- run.conditions: Homo sapiens, MOLM-13; compound concentration 10 μM; read-out: % Inhibition (MOLM-13 Cell Viability)
property.measured: cytotoxicity at 10 µM

>>> test_value("Cc1ccc(CNC(=O)NCc2cc3c(s2)C(=O)N([C@H]2CCCC(=O)NC2=O)C3)cc1Cl")
"9%"
>>> test_value("Cc1ccc(CC(=O)NCc2scc3c2CN([C@H]2CCCC(=O)NC2=O)C3=O)cc1Cl")
"12%"
>>> test_value("O=C1CCC[C@H](N2Cc3sc(Br)cc3C2=O)C(=O)N1")
"0%"
>>> test_value("CC(C)c1scc2c1CN([C@H]1CCCC(=O)NC1=O)C2=O")
"31%"
>>> test_value("O=C1CCC[C@H](N2Cc3sccc3C2=O)C(=O)N1")
"32%"
>>> test_value("O=C1CCC(N2C(=O)c3cc(C4CCCC4)sc3C2=O)C(=O)N1 (stereo not drawn)")
"0%"
>>> test_value("O=C1CCC(N2Cc3c(C4CCCC4)csc3C2=O)C(=O)N1 (stereo not drawn)")
"13%"
>>> test_value("Cc1ccc(CNC(=O)NCc2scc3c2CN([C@H]2CCCC(=O)NC2=O)C3=O)cc1Cl")
"99%"
>>> test_value("O=C1CCC[C@H](N2Cc3ccsc3C2=O)C(=O)N1")
"6%"
>>> test_value("O=C1CCC(N2C(=O)c3scc(C4CCCC4)c3C2=O)C(=O)N1 (stereo not drawn)")
"23%"
>>> test_value("Nc1scc2c1C(=O)N([C@H]1CCCC(=O)NC1=O)C2=O")
"23%"
>>> test_value("Cc1cc2c(s1)CN([C@H]1CCCC(=O)NC1=O)C2=O")
"18%"
>>> test_value("NCc1scc2c1CN([C@H]1CCCC(=O)NC1=O)C2=O")
"3%"
>>> test_value("Cc1c(Cl)cc(NC(=O)NCc2scc3c2CN([C@H]2CCCC(=O)NC2=O)C3=O)cc1C(C)C")
"100%"
>>> test_value("Cc1ccc(NC(=O)NCc2cc3c(s2)C(=O)N([C@H]2CCCC(=O)NC2=O)C3)cc1Cl")
"93%"
>>> test_value("O=C1CCC(N2Cc3c(csc3C(F)(F)F)C2=O)C(=O)N1 (stereo not drawn)")
"10%"
>>> test_value("O=C1CCC[C@H](N2C(=O)c3ccsc3C2=O)C(=O)N1")
"0%"
>>> test_value("O=C1CCC(N2Cc3sccc3C2=O)C(=O)N1 (stereo not drawn)")
"16%"
>>> test_value("O=C1CCC[C@H](N2Cc3cscc3C2=O)C(=O)N1")
"24%"
>>> test_value("O=C1CCC[C@H](N2Cc3c(csc3C(F)F)C2=O)C(=O)N1")
"29%"
>>> test_value("Cc1scc2c1CN([C@H]1CC(=O)NC1=O)C2=O")
"19%"
>>> test_value("O=C1CCC[C@H](N2Cc3c(csc3Br)C2=O)C(=O)N1")
"0%"
>>> test_value("O=C1CCC[C@H](N2C(=O)c3csc([N+](=O)[O-])c3C2=O)C(=O)N1")
"19%"
>>> test_value("O=C1CCC(N2C(=O)c3csc(C4CCCC4)c3C2=O)C(=O)N1 (stereo not drawn)")
"0%"
>>> test_value("Cc1sc(Cl)c2c1CN([C@H]1CCCC(=O)NC1=O)C2=O")
"20%"
>>> test_value("O=C1NCCCC[C@@H]1N1Cc2sccc2C1=O")
"0%"
>>> test_value("Cc1cc(C)c(NC(=O)NCc2scc3c2CN([C@H]2CCCC(=O)NC2=O)C3=O)cc1Cl")
"100%"

###

- Tested on: Molm-13 cells
- method.notes: Molm-13 cell viability (CellTiter-Glo)
- Format: cell-based
- run.conditions: Homo sapiens, MOLM-13; compound concentration 10 μM; read-out: % Inhibition (MOLM-13 Cell Viability)
property.measured: cytotoxicity at 10 µM (%)

>>> test_value("O=C1CCC[C@H](N2Cc3c(csc3C3CCCC3)C2=O)C(=O)N1 [Compound 10]")
18
>>> test_value("O=C1CCC[C@H](N2Cc3c(C4CCCC4)csc3C2=O)C(=O)N1 [Compound 24]")
26
>>> test_value("N#Cc1scc2c1CN([C@H]1CCCC(=O)NC1=O)C2=O [Compound 17]")
21
>>> test_value("O=C1CCC[C@@H](N2Cc3sccc3C2=O)C(=O)N1 [Compound 5]")
24
>>> test_value("Cc1scc2c1CN([C@H]1CCCC(=O)NC1=O)C2=O [Compound 8]")
42
>>> test_value("Cc1ccc(NC(=O)NCc2scc3c2CN([C@H]2CCCC(=O)NC2=O)C3=O)cn1 [Compound 37]")
51
>>> test_value("O=C1C[C@H](N2Cc3sccc3C2=O)C(=O)N1 [Compound 6]")
0
>>> test_value("Cc1scc2c1CN([C@H]1CCCCNC1=O)C2=O [Compound 28]")
0
>>> test_value("O=C1CCC(N2Cc3c(csc3C(F)F)C2=O)C(=O)N1 (stereo not drawn) [Compound 23]")
34

###

Each item that follows carries a reported inhibition at 1 µM.
- Test system: IL-6
- method.notes: IL-6 expression in LPS stimulated PBMCs (Meso Scale)
- Format: cell-based, human
- run.conditions: Homo sapiens, PBMC; compound concentration 1 μM; LPS-stimulated PBMCs
property.measured: inhibition at 1 µM (%)

>>> test_value("Cc1ccc(NC(=O)NCc2cc3c(s2)C(=O)N(C2CCC(=O)NC2=O)C3)cc1Cl (stereo not shown)")
17
>>> test_value("Cc1ccc(CNC(=O)NCc2cc3c(s2)C(=O)N(C2CCC(=O)NC2=O)C3)cc1Cl (stereo not shown)")
6
>>> test_value("Cc1ccc(NC(=O)NCc2scc3c2CN([C@H]2CCCC(=O)NC2=O)C3=O)cc1C(C)C")
97
>>> test_value("Cc1ccc(NC(=O)NCc2csc3c2CN([C@H]2CCCC(=O)NC2=O)C3=O)cc1Cl")
18
>>> test_value("Cc1ccc(CNC(=O)NCc2csc3c2CN([C@H]2CCCC(=O)NC2=O)C3=O)cc1Cl")
5
>>> test_value("Cc1ccc(CNC(=O)NCc2scc3c2CN([C@H]2CCCC(=O)NC2=O)C3=O)cc1Cl")
39
>>> test_value("Cc1ccc(CC(=O)NCc2scc3c2CN([C@H]2CCCC(=O)NC2=O)C3=O)cc1Cl")
40
>>> test_value("Cc1ccc(CC(=O)Nc2scc3c2CN(C2CCC(=O)NC2=O)C3=O)cc1Cl (stereo not shown)")
12
>>> test_value("Cc1sc2c(c1C)C(c1ccc(Cl)cc1)=N[C@@H](CC(=O)NCCCCNCC(=O)NCc1scc3c1CN(C1CCC(=O)NC1=O)C3=O)c1nnc(C)n1-2 (stereo partly shown)")
95
>>> test_value("Cc1ccc(NC(=O)NCc2cc3c(s2)C(=O)N([C@H]2CCCC(=O)NC2=O)C3)cc1Cl")
16
>>> test_value("Cc1ccc(NC(=O)NCc2scc3c2CN([C@H]2CCCC(=O)NC2=O)C3=O)cn1")
3
>>> test_value("Cc1ccc(NC(=O)Nc2scc3c2CN(C2CCC(=O)NC2=O)C3=O)cc1Cl (stereo not shown)")
0
>>> test_value("Cc1ccc(NC(=S)NCc2scc3c2CN([C@H]2CCCC(=O)NC2=O)C3=O)cc1Cl")
95
>>> test_value("Cc1ccc(NC(=O)NCc2scc3c2CN([C@H]2CCCC(=O)NC2=O)C3=O)nc1Cl")
32
>>> test_value("Cc1cc(C)c(NC(=O)NCc2scc3c2CN([C@H]2CCCC(=O)NC2=O)C3=O)cc1Cl")
38
>>> test_value("Cc1ccc(NC(=O)NCc2scc3c2CN([C@H]2CCCC(=O)NC2=O)C3=O)cc1C(F)(F)F")
94

###

- Tested on: Molm-13 cells
- method.notes: Molm-13 cell viability (CellTiter-Glo)
- Format: cell-based
- run.conditions: Homo sapiens, MOLM-13; compound concentration 1 μM; read-out: % Inhibition (MOLM-13 Cell Viability)
Note to self: values exactly at 50% are 1.0. So cytotoxicity at 1 µM at or above 50% is 1.0, below is 0.0.

>>> assigned_category("Cc1ccc(NC(=O)NCc2scc3c2CN([C@H]2CCCC(=O)NC2=O)C3=O)nc1Cl")
0.0
>>> assigned_category("Cc1cnc(Nc2ccc(OCCCNC(=O)NCc3scc4c3CN(C3CCC(=O)NC3=O)C4=O)cc2)nc1Nc1cccc(S(=O)(=O)NC(C)(C)C)c1 (stereo not drawn)")
1.0
>>> assigned_category("Cc1ccc(NC(=O)NCc2csc3c2CN([C@H]2CCCC(=O)NC2=O)C3=O)cc1Cl")
1.0
>>> assigned_category("Cc1ccc(NC(=O)Nc2scc3c2CN(C2CCC(=O)NC2=O)C3=O)cc1Cl (stereo not drawn)")
0.0
>>> assigned_category("Cc1ccc(CNC(=O)NCc2csc3c2CN([C@H]2CCCC(=O)NC2=O)C3=O)cc1Cl")
0.0
